tested on: velvetleaf; assay: Foliar spread test for upland field; type: in vivo, Abutilon theophrasti; parameters: key: 0: normal development; 1: Less damaged; 2: Slightly damaged; 3: Moderately damaged; 4: Severely damaged; 5: All killed; conditions: foliar spray 500 ppm, 3 weeks, rank vs non-treated
Give measured Effects Velvetleaf for each item. Keep answers brief.

// below: answered compounds
CCC(Oc1cccc(C(F)(F)F)c1)c1nc2cc(F)c(Cl)cc2o1 (stereo not shown) | 3
CCCC(Oc1cccc(C(F)(F)F)c1)c1nc2cc(F)c(C(F)(F)F)cc2o1 (stereo not shown) | 2
CCC(Oc1ccc(F)c(C(F)(F)F)c1)c1nc2cc(Br)ccc2o1 (stereo not shown) | 3

Query compound follows.
State the recorded Effects Velvetleaf for this entry: CCCC(Oc1ccc(F)c(C(F)(F)F)c1)c1nc2cc(S(C)(=O)=O)c(C)cc2o1 (stereo not shown)
3

###

test system: velvetleaf; experiment: Soil treatment test for upland field; format: in vivo, Abutilon theophrasti; design: key: 0: normal development; 1: Less damaged; 2: Slightly damaged; 3: Moderately damaged; 4: Severely damaged; 5: All killed; conditions: 500 g/ha, glass house 25° C., 3 weeks
Please use fulfilled whenever Effects Velvetleaf is not below 3, and not fulfilled whenever it is.

Reference set, count: 3
CCC(Oc1cccc(S(C)(=O)=O)c1)c1nc2cc(S(C)(=O)=O)ccc2o1 (stereo not drawn) | fulfilled
CCCC(Oc1cccc(C(F)(F)F)c1)c1nc2cc(C(F)(F)F)ccc2o1 (stereo not drawn) | fulfilled
CCC(Oc1cccc(OC(F)(F)F)c1)c1nc2cc(Cl)ccc2o1 (stereo not drawn) | not fulfilled

Tell me whether Effects Velvetleaf is at least 3 here: CCC(Oc1cccc(C(F)(F)F)c1)c1nc2cc([N+](=O)[O-])ccc2o1 (stereo not drawn)
not fulfilled

Would you kindly repeat that for CCC(Oc1ccc(F)c(C(F)(F)F)c1)c1nc2cc([N+](=O)[O-])ccc2o1 (stereo not drawn) ?
fulfilled

Also CCC(Oc1cccc(C(F)(F)F)c1)c1nc2cc(Cl)c(C)cc2o1 (stereo not drawn) , if possible.
fulfilled

Could you do the same for CCCCC(Oc1ccc(F)c(C(F)(F)F)c1)c1nc2cc(Cl)ccc2o1 (stereo not drawn) , please?
not fulfilled

Follow-up item: CCC(Oc1ccc(F)c(C(F)(F)F)c1)c1nc2cc(OC)ccc2o1 (stereo not drawn)
fulfilled

###

Exercise: for every item that follows, state its recorded Effects Solgum.
System: solgum
Assay: Soil treatment test for upland field
Type: in vivo
Parameters: key: 0: normal development; 1: Less damaged; 2: Slightly damaged; 3: Moderately damaged; 4: Severely damaged; 5: All killed
Conditions: 500 g/ha, glass house 25° C., 3 weeks
Experimental: (0: normal development, 1: Less damaged, 2: Slightly damaged, 3: Moderately damaged, 4: Severely damaged, 5: All killed). […] The herbicidal effects were evaluated according to the evaluation method described in the above (1).
Numbers only.

CCCC(Oc1cccc(C#N)c1)c1nc2cc(Cl)c(C)cc2o1 (centres unmarked) | 0
CCC(Oc1ccc(F)c(C(F)(F)F)c1)c1nc2cc(C#N)c(C#N)cc2o1 (centres unmarked) | 0
CCC(Oc1ccc(F)c(C(F)(F)F)c1)c1nc2cc(S(C)(=O)=O)ccc2o1 (centres unmarked) | 0

I would be grateful if you could provide Effects Solgum for each of the following entries.
1. CCC(Oc1cccc(C(F)(F)F)c1)c1nc2cc(F)ccc2o1 (centres unmarked)
2. CCCC(Oc1cccc(C(F)(F)F)c1)c1nc2cc(C(F)(F)F)ccc2o1 (centres unmarked)
3. CCC(Oc1cccc(C(F)(F)F)c1)c1nc2cc(C(F)(F)F)ccc2o1 (centres unmarked)
4. CCC(Oc1ccc(F)c(C(F)(F)F)c1)c1nc2cc(F)c(F)cc2o1 (centres unmarked)
5. CCCCC(Oc1ccc(F)c(C(F)(F)F)c1)c1nc2cc(Cl)ccc2o1 (centres unmarked)
6. CCCC(Oc1cccc(C(F)(F)F)c1)c1nc2cc(F)c(Cl)cc2o1 (centres unmarked)

1: 1; 2: 1; 3: 2; 4: 2; 5: 0; 6: 1

###

Give measured Effects Livid amaranth for each item. Keep answers brief.
tested on: livid amaranth; assay: Foliar spread test for upland field; assay type: in vivo, Amaranthus lividus; parameters: key: 0: normal development; 1: Less damaged; 2: Slightly damaged; 3: Moderately damaged; 4: Severely damaged; 5: All killed; settings: foliar spray 500 ppm, 3 weeks, rank vs non-treated
Answers are plain numbers.

Below, 3 compounds whose answers are already recorded.
CCCC(Oc1ccc(F)c(C(F)(F)F)c1)c1nc2cc(C#N)c(C#N)cc2o1 (stereo not drawn) | 5
CCC(Oc1ccc(F)c(C(F)(F)F)c1)c1nc2cc(C#N)c(C#N)cc2o1 (stereo not drawn) | 5
CCC(Oc1cccc(C(F)(F)F)c1)c1nc2cc(F)c(Cl)cc2o1 (stereo not drawn) | 5

List the reported Effects Livid amaranth of each compound below.
1. CCC(Oc1ccc(F)c(C(F)(F)F)c1)c1nc2cc([N+](=O)[O-])ccc2o1 (stereo not drawn)
2. CCC(Oc1cccc(C(F)(F)F)c1)c1nc2cc(Cl)c(C)cc2o1 (stereo not drawn)
3. CCC(Oc1ccc(F)c(C(F)(F)F)c1)c1nc2cc(OC)ccc2o1 (stereo not drawn)

1. 5
2. 4
3. 5

###

Give measured Effects Solgum for each item. Keep answers brief.
test system: solgum; assay: Foliar spread test for upland field; format: in vivo; parameters: key: 0: normal development; 1: Less damaged; 2: Slightly damaged; 3: Moderately damaged; 4: Severely damaged; 5: All killed; details: foliar spray 500 ppm, 3 weeks, rank vs non-treated
Give bare numbers.

CCCC(Oc1ccc(F)c(C(F)(F)F)c1)c1nc2ccc(C(F)(F)F)cc2o1 (centres unmarked) | 1

Batch request: Effects Solgum for each of the following compounds.
1. CCC(Oc1cccc(C(F)(F)F)c1)c1nc2cc(C#N)c(C#N)cc2o1 (centres unmarked)
2. CCCC(Oc1ccc(F)c(C(F)(F)F)c1)c1nc2cc(C(F)(F)F)ccc2o1 (centres unmarked)
3. CCCC(Oc1cccc(C(F)(F)F)c1)c1nc2cc(C#N)c(C#N)cc2o1 (centres unmarked)
4. CCC(Oc1cccc(C(F)(F)F)c1)c1nc2cc(Br)ccc2o1 (centres unmarked)
5. CCCC(Oc1ccc(F)c(C(F)(F)F)c1)c1nc2cc(C#N)c(C#N)cc2o1 (centres unmarked)
6. CCCC(Oc1cccc(C(F)(F)F)c1)c1nc2cc(F)c(C(F)(F)F)cc2o1 (centres unmarked)
7. CC(Oc1ccc(F)c(C(F)(F)F)c1)c1nc2cc(Cl)ccc2o1 (centres unmarked)

[2, 1, 1, 1, 1, 2, 1]

###

Please respond with reported Effects Green foxtail for every item in the list.
system: green foxtail; assay: Foliar spread test for upland field; format: in vivo, Setaria viridis; parameters: key: 0: normal development; 1: Less damaged; 2: Slightly damaged; 3: Moderately damaged; 4: Severely damaged; 5: All killed; details: foliar spray 500 ppm, 3 weeks, rank vs non-treated
Give bare numbers.

CCC(Oc1cccc(OC(F)(F)F)c1)c1nc2cc(Cl)ccc2o1 (centres unmarked) [Compound 447] | 2
CCC(Oc1ccc(F)c(C(F)(F)F)c1)c1nc2cc(Br)ccc2o1 (centres unmarked) [Compound 165] | 4
CCC(Oc1ccc(F)c(C(F)(F)F)c1)c1nc2cc(F)ccc2o1 (centres unmarked) [Compound 119] | 1
CC(Oc1cccc(C(F)(F)F)c1)c1nc2ccc(C(F)(F)F)cc2o1 (centres unmarked) [Compound 86] | 2

Here's the next entry for you.
Requested field: Effects Green foxtail. Item: CCC(Oc1ccc(F)c(C(F)(F)F)c1)c1nc2cc(F)c(F)cc2o1 (centres unmarked) [Compound 284]
4

###

tested on: cotton; test: Foliar spread test for upland field; type: in vivo; parameters: key: 0: normal development; 1: Less damaged; 2: Slightly damaged; 3: Moderately damaged; 4: Severely damaged; 5: All killed; conditions: foliar spray 500 ppm, 3 weeks, rank vs non-treated
outcomeMeasure: Effects Cotton
Answers are plain numbers.

CCC(Oc1ccc(F)c(C(F)(F)F)c1)c1nc2cc([N+](=O)[O-])ccc2o1 (centres unmarked) | 3
CCC(Oc1cccc(C(F)(F)F)c1)c1nc2cc(Cl)ccc2o1 (centres unmarked) | 3
CCCC(Oc1cccc(C(F)(F)F)c1)c1nc2cc(C(F)(F)F)ccc2o1 (centres unmarked) | 3

Look at each molecule and report its Effects Cotton.
1. CCC(Oc1ccc(F)c(C(F)(F)F)c1)c1nc2cc(F)c(Cl)cc2o1 (centres unmarked)
2. CCC(Oc1ccc(F)c(C(F)(F)F)c1)c1nc2cc(C(F)(F)F)ccc2o1 (centres unmarked)
3. CCC(Oc1ccc(F)c(C(F)(F)F)c1)c1nc2cc(Cl)c(C)cc2o1 (centres unmarked)

1. 2
2. 3
3. 3

For each entry beneath this line, provide reported Effects Cotton.
1. CCCC(Oc1cccc(C(F)(F)F)c1)c1nc2cc(F)c(Cl)cc2o1 (centres unmarked)
2. CCCC(Oc1ccc(F)c(C(F)(F)F)c1)c1nc2cc(F)c(Cl)cc2o1 (centres unmarked)
3. CCC(Oc1cccc(C(F)(F)F)c1)c1nc2cc(Cl)c(C)cc2o1 (centres unmarked)
4. CCCC(Oc1cccc(C#N)c1)c1nc2cc(Cl)ccc2o1 (centres unmarked)
5. CCCC(Oc1ccc(F)c(C(F)(F)F)c1)c1nc2cc(C(F)(F)F)ccc2o1 (centres unmarked)

1. 2
2. 2
3. 3
4. 3
5. 3
